Molecular target: native mouse MET on living mouse cells (mouse, UniProt P16056 25-1379)
Test: cell-based or functional assay
experimental_endpoint: cell scattering score, MLP29, 9.000 nM (score 0-4)
Unit score 0-4 implied. Number only.

| binder | readout_units | cell scattering score, MLP29, 9.000 nM |
| --- | --- | --- |
| chimeric llama-human IgG1 mAb 76G7 (antibody, V domains shown) VH: QVQLVESGGNLVQPGGSLRLSCAASGFTFSNYYMSWVRQAPGKGLEWVSDIYSDGSTTWYSDSVKGRFTISRDNAKNTLSLQMNSLKSEDTAVYYCARVKIYPGGYDAWGQGTQVTVSS VL: QAGLTQPPSVSGSPGKTVTISCAGNSSDVGYGNYVSWYQQFPGMAPKLLIYLVNKRASGITDRFSGSKSGNTASLTISGLQSEDEADYYCASYTGSNNIVFGGGTHLTVL | score 0-4 | 3 |
| chimeric llama-human IgG1 mAb 71C3 (antibody, V domains shown) VH: QLQLVESGGGLVQPGGSLRLSCAASGFTFSSHAMSWVRQAPGKGLEWVSAINSGGGSTSYADSVKGRFTISRDNAKNTLYLQMNSLKPEDTAVYYCAKELRFDLARYTDYEAWDYWGQGTQVTVSS VL: SYELTQPSALSVTLGQTAKITCQGGSLGSSYAHWYQQKPGQAPVLVIYDDDSRPSGIPERFSGSSSGGTATLTISGAQAEDEGDYYCQSADSSGNAAVFGGGTHLTVL | score 0-4 | 4 |

What does the record list as cell scattering score, MLP29, 9.000 nM for chimeric llama-human IgG1 mAb 71G2 (antibody, V domains shown) VH: EVQLQESGGGLVQPGGSLRLSCAASGFTFSIYDMSWVRQAPGKGLEWVSTINSDGSSTSYVDSVKGRFTISRDNAKNTLYLQMNSLKPEDTAVYYCAKVYGSTWDVGPMGYGMDYWGKGTLVTVSS VL: SSALTQPSALSVSLGQTARITCQGGSLGSSYAHWYQQKPGQAPVLVIYGDDSRPSGIPERFSGSSSGGTATLTISGAQAEDEDDYYCQSTDSSGNTVFGGGTRLTVL ? 4
